# dsRNA signal, AU Low values compiled below
# System: SARS-CoV-2 (USA-WA1/2020) in Calu-3 cells
# Type: cell-based
# condition-summary: low dose (100 nM), Calu-3, 48 h
measurement-kind: dsRNA signal, AU Low (AU)

Cn1cc(/C=C2\C(=O)Nc3cccnc32)c2ccccc21	18067.5
c1cc(Nc2cc(C3CC3)[nH]n2)nc(Nc2ccc3nc[nH]c3c2)n1	15781.0
Cn1c(=O)c(F)c(Nc2ccc(I)cc2F)c2c(=O)n(C[C@@H](O)CO)cnc21 [TAK-733, reference compound]	14755.9

---

# Test system: SARS-CoV-2 (USA-WA1/2020) in Calu-3 cells
# Assay type: cell-based
# condition-summary: low dose (100 nM), Calu-3, 48 h
Param label: returns criterion met when dsRNA signal, AU Low < 40000 AU, returns criterion not met otherwise, including exact equality.

Nc1nc(Nc2ccc(S(N)(=O)=O)cc2)nn1C(=O)c1c(F)cccc1F	criterion met
C[C@@H](Nc1cc(F)cc(F)c1)c1cc(C(=O)N(C)C)cc2c(=O)cc(N3CCOCC3)oc12	criterion met
CNC(=O)c1cc(Oc2ccc(NC(=O)Nc3ccc(Cl)c(C(F)(F)F)c3)c(F)c2)ccn1 [Regorafenib monohydrate]	criterion met
Cc1cnc(-c2cnc(NCCNc3ccc(C#N)cn3)nc2-c2ccc(Cl)cc2Cl)[nH]1	criterion met
O=C(NC1CCNCC1)c1[nH]ncc1NC(=O)c1c(Cl)cccc1Cl	criterion not met
COc1cc2ncnc(Nc3cccc(Br)c3)c2cc1OC.Cl [PD153035 hydrochloride]	criterion met
